Biological target: RAR-β (Homo sapiens)
Sequence (P10826 1-455): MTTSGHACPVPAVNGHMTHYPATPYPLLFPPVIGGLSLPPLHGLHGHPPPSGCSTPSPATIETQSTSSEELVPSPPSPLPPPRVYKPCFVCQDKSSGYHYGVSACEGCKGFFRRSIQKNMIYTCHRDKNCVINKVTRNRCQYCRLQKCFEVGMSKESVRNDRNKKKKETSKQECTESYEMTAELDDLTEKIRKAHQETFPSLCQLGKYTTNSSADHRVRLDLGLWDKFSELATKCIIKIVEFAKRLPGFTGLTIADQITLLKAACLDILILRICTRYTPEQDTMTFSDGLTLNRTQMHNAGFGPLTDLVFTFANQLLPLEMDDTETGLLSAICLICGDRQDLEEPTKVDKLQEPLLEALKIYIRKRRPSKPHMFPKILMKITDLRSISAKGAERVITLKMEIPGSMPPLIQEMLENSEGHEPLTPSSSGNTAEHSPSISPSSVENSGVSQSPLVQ
Assay: RAR-mediated transcriptional promotion activity, RAR-β
Format: cell-based
Conditions: ED30 of all-trans-retinoic acid taken as 1; 3 μM all-trans-retinoic acid = 100%
observation_type: Transcriptional promotion activity, Relative ED30, RAR-β

INSERT INTO results (compound, value_observed) VALUES
  ('Cc1ccc(C)c2c(F)c(-c3ccc(-c4ccc(C(=O)O)cc4)[nH]3)oc12', 2.8),
  ('Cc1ccc(C)c2oc(-c3ccc(-c4ccc(C(=O)O)cc4)[nH]3)cc12 [drawing 14]', 13),
  ('CC1(C)CCC(C)(C)c2nc(-c3ccc(-c4ccc(C(=O)O)cc4)[nH]3)cnc21', 1.4),
  ('O=C(O)c1ccc(-c2ccc(-c3cc4c(F)ccc(Cl)c4o3)[nH]2)cc1', 91),
  ('O=C(O)c1ccc(-c2ccc(-c3cc4c(C(F)(F)F)ccc(F)c4o3)[nH]2)cc1', 8.1),
  ('CCc1ccc(C)c2cc(-c3ccc(-c4ccc(C(=O)O)cc4)[nH]3)oc12', 24),
  ('O=C(O)c1ccc(-c2ccc(-c3cc4c(Cl)ccc(Cl)c4o3)[nH]2)cc1 [drawing 15]', 160);

----------
biological target: RAR-γ (Homo sapiens, UniProt P13631); assay: RAR-mediated transcriptional promotion activity, RAR-γ; assay type: cell-based; settings: ED30 of all-trans-retinoic acid taken as 1; 3 μM all-trans-retinoic acid = 100%
Sequence (P13631 whole entry, species assumed): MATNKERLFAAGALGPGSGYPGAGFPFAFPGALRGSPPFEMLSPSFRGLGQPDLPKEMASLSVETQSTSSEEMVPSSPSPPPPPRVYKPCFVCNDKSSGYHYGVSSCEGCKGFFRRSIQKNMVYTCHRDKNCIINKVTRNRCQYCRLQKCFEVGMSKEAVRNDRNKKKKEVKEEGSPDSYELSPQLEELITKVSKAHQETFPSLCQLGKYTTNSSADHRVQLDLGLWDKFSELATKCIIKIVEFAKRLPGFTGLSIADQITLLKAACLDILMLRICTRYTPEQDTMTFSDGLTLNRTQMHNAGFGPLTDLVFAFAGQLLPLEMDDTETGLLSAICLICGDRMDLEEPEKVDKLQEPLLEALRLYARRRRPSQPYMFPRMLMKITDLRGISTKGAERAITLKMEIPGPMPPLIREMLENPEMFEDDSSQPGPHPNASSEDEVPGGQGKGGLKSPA
observation_type: Transcriptional promotion activity, Relative ED30, RAR-γ

INSERT INTO results (compound, value_observed) VALUES
  ('Cc1ccc(C)c2oc(-c3ccc(-c4ccc(C(=O)O)cc4)[nH]3)cc12 [drawing 14]', 191),
  ('Cc1ccc(C)c2c(F)c(-c3ccc(-c4ccc(C(=O)O)cc4)[nH]3)oc12', 31),
  ('CCc1ccc(C)c2cc(-c3ccc(-c4ccc(C(=O)O)cc4)[nH]3)oc12', 120),
  ('O=C(O)c1ccc(-c2ccc(-c3cc4c(C(F)(F)F)ccc(F)c4o3)[nH]2)cc1', 95),
  ('O=C(O)c1ccc(-c2ccc(-c3cc4c(Cl)ccc(Cl)c4o3)[nH]2)cc1 [drawing 15]', 1400),
  ('CC1(C)CCC(C)(C)c2nc(-c3ccc(-c4ccc(C(=O)O)cc4)[nH]3)cnc21', 19),
  ('O=C(O)c1ccc(-c2ccc(-c3cc4c(F)ccc(Cl)c4o3)[nH]2)cc1', 790);

----------
Target: UniProt:P10276
Sequence (P10276 1-462): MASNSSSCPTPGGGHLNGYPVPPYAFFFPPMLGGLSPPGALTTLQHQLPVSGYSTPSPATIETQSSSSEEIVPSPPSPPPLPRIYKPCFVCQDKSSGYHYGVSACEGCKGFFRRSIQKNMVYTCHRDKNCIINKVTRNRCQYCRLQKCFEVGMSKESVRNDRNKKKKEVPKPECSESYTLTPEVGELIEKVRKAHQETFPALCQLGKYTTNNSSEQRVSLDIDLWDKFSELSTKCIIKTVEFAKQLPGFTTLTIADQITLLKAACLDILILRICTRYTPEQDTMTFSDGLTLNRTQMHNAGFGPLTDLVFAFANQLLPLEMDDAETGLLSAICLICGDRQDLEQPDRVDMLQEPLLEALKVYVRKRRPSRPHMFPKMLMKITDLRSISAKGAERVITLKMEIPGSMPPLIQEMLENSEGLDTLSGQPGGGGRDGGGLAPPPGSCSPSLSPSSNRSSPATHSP
Experiment: RAR-mediated transcriptional promotion activity, RAR-α
Format: cell-based
Details: ED30 of all-trans-retinoic acid taken as 1; 3 μM all-trans-retinoic acid = 100%
observation_type: Transcriptional promotion activity, Relative ED30, RAR-α

INSERT INTO results (compound, value_observed) VALUES
  ('O=C(O)c1ccc(-c2ccc(-c3cc4c(Cl)ccc(Cl)c4o3)[nH]2)cc1 [drawing 15]', 1.0),
  ('O=C(O)c1ccc(-c2ccc(-c3cc4c(F)ccc(Cl)c4o3)[nH]2)cc1', 0.33),
  ('Cc1ccc(C)c2oc(-c3ccc(-c4ccc(C(=O)O)cc4)[nH]3)cc12 [drawing 14]', 0.4),
  ('CC1(C)CCC(C)(C)c2nc(-c3ccc(-c4ccc(C(=O)O)cc4)[nH]3)cnc21', 0.21),
  ('CCc1ccc(C)c2cc(-c3ccc(-c4ccc(C(=O)O)cc4)[nH]3)oc12', 0.26),
  ('O=C(O)c1ccc(-c2ccc(-c3cc4c(C(F)(F)F)ccc(F)c4o3)[nH]2)cc1', 0.33),
  ('Cc1ccc(C)c2c(F)c(-c3ccc(-c4ccc(C(=O)O)cc4)[nH]3)oc12', 0.39);
